# testSummary: plasma pharmacokinetics (LC–MS/MS, noncompartmental analysis)
# Type: in vivo, human
# protocolConditions: human, plasma, po, 400 mg, 400 mg QW oral, cycle 1 day 22, plasma, n 3; read-out: t1/2z, mean (range) (converted)
propertyLabel: half-life (h)
Give bare numbers, in h.

Problem: Please indicate half-life recorded for C[C@@H](NC(=O)c1ncnc(N)c1Cl)c1ncc(C(=O)Nc2cc(C(F)(F)F)c(Cl)cn2)s1
Solution: 52

###

# testSummary: plasma pharmacokinetics (LC–MS/MS, noncompartmental analysis)
# Format: in vivo, human
# protocolConditions: human, plasma, po, 280 mg, 280 mg Q2D oral, cycle 1 day 21, plasma, n 4; read-out: tmax, median (min, max)
propertyLabel: Tmax (h)
Give bare numbers, in h.

Problem: Please indicate Tmax recorded for C[C@@H](NC(=O)c1ncnc(N)c1Cl)c1ncc(C(=O)Nc2cc(C(F)(F)F)c(Cl)cn2)s1
Solution: 3

###

# testSummary: plasma pharmacokinetics (LC–MS/MS, noncompartmental analysis)
# Assay type: in vivo, human
# protocolConditions: human, plasma, po, 135 mg, 135 mg Q2D oral, cycle 1 day 21, plasma, n 3; read-out: Cmax, geometric mean (%CV)
propertyLabel: Cmax (ng/mL)
Answers are plain numbers, in ng/mL.

Problem: Please indicate Cmax recorded for C[C@@H](NC(=O)c1ncnc(N)c1Cl)c1ncc(C(=O)Nc2cc(C(F)(F)F)c(Cl)cn2)s1
Solution: 3320

###

# testSummary: plasma pharmacokinetics (LC–MS/MS, noncompartmental analysis)
# Type: in vivo, human
# protocolConditions: human, plasma, po, 400 mg, 400 mg QW oral, cycle 1 day 22, plasma, n 3; read-out: Tmax, median (min, max)
propertyLabel: Tmax (h)
Give bare numbers, in h.

Problem: Please indicate Tmax recorded for C[C@@H](NC(=O)c1ncnc(N)c1Cl)c1ncc(C(=O)Nc2cc(C(F)(F)F)c(Cl)cn2)s1 [tovorafenib]
Solution: 3

###

# testSummary: plasma pharmacokinetics (LC–MS/MS, noncompartmental analysis)
# Format: in vivo, human
# protocolConditions: human, plasma, po, 40 mg, 40 mg Q2D oral, cycle 1 day 21, plasma, n 2; read-out: tmax, median (min, max)
# Method: In addition, for patients on Q2D schedules, predose or trough samples were collected on days 9 and 15 (Q2D dosing) or days 8 and 15 (QW dosing) to evaluate time to steady state. […] Terminal half-life was calculated based on the equation: t1/2 = ln2/kel (kel = elimination rate constant determined by linear regression analysis of selected time points in the apparent terminal phase of the log plasma concentration versus time curve).
propertyLabel: Tmax (h)
One number for each entry, in h.

Problem: Please indicate Tmax recorded for C[C@@H](NC(=O)c1ncnc(N)c1Cl)c1ncc(C(=O)Nc2cc(C(F)(F)F)c(Cl)cn2)s1 [tovorafenib]
Solution: 3

###

# testSummary: plasma pharmacokinetics (LC–MS/MS, noncompartmental analysis)
# Type: in vivo, human
# protocolConditions: human, plasma, po, 80 mg, 80 mg Q2D oral, cycle 1 day 21, plasma, n 3; read-out: Cmax, geometric mean (%CV)
propertyLabel: Cmax (µg/mL)
Give bare numbers, in µg/mL.

Problem: Please indicate Cmax recorded for C[C@@H](NC(=O)c1ncnc(N)c1Cl)c1ncc(C(=O)Nc2cc(C(F)(F)F)c(Cl)cn2)s1
Solution: 2.04

###

# testSummary: plasma pharmacokinetics (LC–MS/MS, noncompartmental analysis)
# Format: in vivo, human
# protocolConditions: human, plasma, po, 135 mg, 135 mg Q2D oral, cycle 1 day 21, plasma, n 3; read-out: AUC48, geometric mean (%CV)
propertyLabel: AUC

Problem: Please indicate AUC recorded for C[C@@H](NC(=O)c1ncnc(N)c1Cl)c1ncc(C(=O)Nc2cc(C(F)(F)F)c(Cl)cn2)s1
Solution: 96800 ng·h/mL

Just for reference, paper PMC10261210 is where these values come from.
